# system tested: TNKS1 (Homo sapiens (Human), UniProt O95271)
# assay details: biochemical
# Assay type: biochemical
reported endpoint: IC50

**Q:** Report IC50, nothing else, for this compound: `Cn1cc(C(=O)C2CCN(C(=O)COCc3nc4c(F)cc(F)cc4c(=O)[nH]3)CC2)cn1`
**A:** 29 nM

---

As shown below, each of these compounds has a reported IC50 value.
# system tested: TNKS1 (Homo sapiens (Human), UniProt O95271)
# assay details: biochemical
# Format: biochemical
# cond: GST-tagged Tnks-1 (1023-1327 aa); read-out: IC50 [M] TNKS1 ELISA
Give just the number in M; leave the unit off.

These recorded examples may help you get a feel for the data.
[
  {
    "line notation": "Cn1cc(C(=O)C2CCN(C(=O)COCc3nc4ccccc4c(=O)[nH]3)CC2)cn1",
    "measure unit": "M",
    "IC50": "2.7e-08"
  },
  {
    "line notation": "COC(=O)c1ccc(C(=O)C2CCN(C(=O)CC(C)(C)Cc3nc4ccccc4c(=O)[nH]3)CC2)cc1C",
    "measure unit": "M",
    "IC50": "5.8e-10"
  },
  {
    "line notation": "CC(C)n1cc(C(=O)C2CCN(C(=O)CC(C)(C)Cc3nc4c(ccn4C)c(=O)[nH]3)CC2)cn1",
    "measure unit": "M",
    "IC50": "1.3e-09"
  }
]

**Q:** Enter measured IC50, system TNKS1 (Homo sapiens (Human), UniProt O95271), for the compound shown: `Cn1cc(C(=O)C2CCN(C(=O)C(C)(C)CCc3nc4ccccc4c(=O)[nH]3)CC2)cn1`
**A:** 6.1e-07

**Q:** # return IC50 for `CC(C)(CC(=O)N1CCC(C(=O)c2ccc(C(=O)O)cc2)CC1)Cc1nc2ccccc2c(=O)[nH]1` , test system: TNKS1 (Homo sapiens (Human), UniProt O95271)
**A:** 5.1e-10

**Q:** Return reported IC50 for target or system TNKS1 (Homo sapiens (Human), UniProt O95271), item `COc1ccc(C(=O)C2CCN(C(=O)NCCc3nc4ccccc4c(=O)[nH]3)CC2)cc1` .
**A:** 1.8e-09

**Q:** Using TNKS1 (Homo sapiens (Human), UniProt O95271) as the test system, report measured IC50 of `Cn1cc(C(=O)C2CCN(C(=O)CC3(Cc4nc5ccccc5c(=O)[nH]4)CC3)CC2)cn1` .
**A:** 2.2e-09

**Q:** Look up and report measured IC50 (TNKS1 (Homo sapiens (Human), UniProt O95271)) for the following compound: `COC(=O)c1cccc(C(=O)C2CCN(C(=O)CC(C)(C)Cc3nc4c(C)cccc4c(=O)[nH]3)CC2)c1`
**A:** 7.9e-10

**Q:** With TNKS1 (Homo sapiens (Human), UniProt O95271) as the test system, provide measured IC50 for this compound: `COC(=O)c1ccc(C(=O)C2CCN(C(=O)CC(C)(C)Cc3nc4ccccc4c(=O)[nH]3)CC2)cc1`
**A:** 6.8e-10

**Q:** Fill in: IC50 on TNKS1 (Homo sapiens (Human), UniProt O95271), entry `Cn1cc(C(=O)C2CCN(C(=O)CC(C)(C)Cc3nc4ccccc4c(=O)[nH]3)CC2)cn1`
**A:** 5.7e-10

**Q:** Report measured IC50 on TNKS1 (Homo sapiens (Human), UniProt O95271); entry: `C[C@@H](CC(=O)N1CCC(C(=O)c2cnn(C)c2)CC1)Cc1cc2ccccc2c(=O)[nH]1`
**A:** 1e-09
